Test system: IICR (IP3 induced calcium release) in CHO cells
assay.explanation: Assay of IICR (IP3 induced calcium release)-inhibiting action
Type: cell-based, Chinese hamster
condition.info: Cricetulus griseus, CHO, test compound 30 μmol; CHO cells, 10 μM ATP; read-out: IICR level (percentage of inhibition)
inhibition at 30 µM by entry:
Only the number, expressed in %, is required.

O=C(CCN(CCO)CCO)c1cccnc1 [Example 150] : 20
CC(C)(C)N(CCO)CCC(=O)c1ccncc1 [Example 30] : 10

Field inhibition at 30 µM (entry Cc1ccc(C(=O)CCNC23CC4CC(CC(C4)C2)C3)o1 [Example 190] ) reads 10

Field inhibition at 30 µM (entry Cc1cc(C(=O)CCN(CCO)CCO)c(C)s1 [Example 229] ) reads 0
